- Tested on: human naïve NKTs (CD161^+CD3^+)
- test: Cytokine/chemokine secretion by human naïve CD161+CD3+ NKTs co-cultured with autologous immature CD14+ DCs
- Format: cell-based
- applied_conditions: normalized to DMSO control
readout: IFN/IL-4 ratio (TH1/TH2 bias)

CCCCCCCCCCCCCCCCCCCCCCCCCC(=O)N[C@@H](CO[C@H]1O[C@H](CO)[C@H](O)[C@H](O)[C@H]1O)[C@H](O)[C@H](O)CCCCc1ccccc1 ... more TH1-biased
CCCCCCCCCCCCCCCCCCCCCCCCCC(=O)N[C@@H](CS[C@H]1O[C@H](CO)[C@H](O)[C@H](O)[C@H]1O)[C@H](O)[C@H](O)CCCCCCCCCCCCCC ... more TH2-biased
CCCCCCCCCCCCCCCCCCCCCCCCCC(=O)N[C@@H](CO[C@H]1O[C@H](CO)[C@H](O)[C@H](O)[C@H]1O)[C@H](O)[C@H](O)CCCCCCCCCCCCCC [C1, α-Galactosyl ceramide, reference compound] ... more TH2-biased
CCCCCCCCCCCCCCCCCCCCCCCCCC(=O)N[C@@H](CO[C@H]1O[C@H](CO)[C@H](O)[C@H](O)[C@H]1O)[C@H](O)[C@H](O)CCc1ccccc1 ... more TH1-biased
